measured_on: T1, GFP-9S library array, motif 4 ND N98G;D124I (synthetic construct, N98G;D124I)
T1 chain: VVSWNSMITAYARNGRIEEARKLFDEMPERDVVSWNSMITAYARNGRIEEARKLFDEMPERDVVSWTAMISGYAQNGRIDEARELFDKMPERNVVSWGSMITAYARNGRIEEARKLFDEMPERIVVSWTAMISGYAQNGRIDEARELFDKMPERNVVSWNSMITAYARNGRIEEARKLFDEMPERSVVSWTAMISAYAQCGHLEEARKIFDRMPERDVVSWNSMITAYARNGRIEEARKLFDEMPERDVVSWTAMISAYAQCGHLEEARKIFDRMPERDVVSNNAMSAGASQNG
experiment_notes: high-throughput RNA pulldown from lysate on Ni-NTA beads; HRP: 50 mM Tris pH 8, 150 mM NaCl, 1 mM beta-mercaptoethanol, 50 ug/ml BSA, 3 ug/ml yeast RNA, 0.5% heparin; ITC and FP: Tris pH 8, 200 mM KCl, 5% glycerol; MST: 50 mM Tris pH 8, 200 mM NaCl, 1 mM DTT, BSA, heparin, 0.05% Tween 20
protocol_conditions: tags: N-terminal His-eGFP; label: 5' Cy5
endpoint_label: Kd (nM)
Provide only the numeric value, understood in nM.

Query: Which Kd reading was recorded for the binder AUUACACGUGA (ssRNA) [Cy5-rpoA] ?
Result: 105

Query: Now consider AUUAGACGUGA (ssRNA) [Cy5-rpoA-G] .
Result: 113
